Molecular target: human SLC6A19 and TMEM27 (Homo sapiens)
Construct: expressed in transfected cells
Sequence (Q695T7 whole entry): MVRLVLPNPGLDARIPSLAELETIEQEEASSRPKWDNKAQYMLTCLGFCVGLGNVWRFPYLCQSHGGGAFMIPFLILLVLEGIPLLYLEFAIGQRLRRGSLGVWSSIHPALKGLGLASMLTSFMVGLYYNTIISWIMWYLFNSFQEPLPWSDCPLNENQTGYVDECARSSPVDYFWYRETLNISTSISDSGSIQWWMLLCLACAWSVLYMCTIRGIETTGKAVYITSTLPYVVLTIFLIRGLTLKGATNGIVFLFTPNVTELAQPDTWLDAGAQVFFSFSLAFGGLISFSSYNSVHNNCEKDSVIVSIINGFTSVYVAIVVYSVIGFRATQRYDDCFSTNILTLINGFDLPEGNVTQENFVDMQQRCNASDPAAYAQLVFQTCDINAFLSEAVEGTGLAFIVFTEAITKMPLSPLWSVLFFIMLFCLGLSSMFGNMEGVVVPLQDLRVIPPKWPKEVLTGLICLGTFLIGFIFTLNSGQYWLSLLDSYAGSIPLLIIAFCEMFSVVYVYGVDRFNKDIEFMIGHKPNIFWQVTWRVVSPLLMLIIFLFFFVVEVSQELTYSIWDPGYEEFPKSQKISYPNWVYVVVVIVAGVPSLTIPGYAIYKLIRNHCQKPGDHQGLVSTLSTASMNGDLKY
Sequence (Q9HBJ8 15-222 partner): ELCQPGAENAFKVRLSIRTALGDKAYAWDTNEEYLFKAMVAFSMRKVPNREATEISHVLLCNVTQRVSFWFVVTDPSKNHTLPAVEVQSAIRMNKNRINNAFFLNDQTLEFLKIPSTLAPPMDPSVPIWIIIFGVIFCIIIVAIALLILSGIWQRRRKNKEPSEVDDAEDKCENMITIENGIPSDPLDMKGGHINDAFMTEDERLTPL
Test: 13C6,15N-isoleucine uptake in CHO cells with doxycycline-inducible expression of human SLC6A19 and TMEM27, RapidFire mass spectrometry (Example B-2)
Type: cell-based
Details: read-out: SLC6A19_RapidFire Uptake Assay IC50
ATTRIBUTE MEASURED: IC50 (nM)

A. CCC(=O)NCc1cc2cc(Cl)c(OCc3cscn3)cc2[nH]1 [Compound 146]
B. Cc1cc2cc(CNC(=O)C3(C)CC3)[nH]c2cc1OCc1cscn1 [Compound 11]
C. Cn1ncc(COc2cc3[nH]c(CNC(=O)N4CCC4)cc3cc2Cl)n1 [Compound 405]
Asked: Sequence the entries by IC50, beginning with the highest number. Could you list the labels in the order requested?
Given back: C, B, A
(C: 367 nM, B: 76 nM, A: 36 nM)

P. CC1(C(=O)NCc2cc3cc(Cl)c(OCc4cccc(F)n4)cc3[nH]2)CC1 [Compound 32]
Q. O=C(NCc1cc2cc(Cl)c(OCc3cocn3)cc2[nH]1)N1CCCC1 [Compound 113]
Asked: Determine, for P and Q , which has the greater value of IC50. Answer by stating the label of the chosen item.
Given back: Q
(Q: 174 nM, P: 58 nM)

a. CC(=O)NCc1cc2cc(Cl)c(OCc3cccc(F)n3)cc2[nH]1 [Compound 225]
b. Cc1ccc(COc2cc3[nH]c(CNC(=O)C4(C)CC4)cc3cc2Cl)cn1 [Compound 37]
Asked: Select one. Lower IC50: a or b Answer by stating the label of the chosen item.
Given back: a

A. O=C(NCc1cc2cc(Cl)c(OCc3cscn3)cc2[nH]1)N1CCC1 [Compound 81]
B. CNC(=O)COc1ccc2cc(CNC(=O)C3(C)CC3)[nH]c2c1 [Compound 162]
Asked: Select one. Lower IC50: A or B Answer by stating the label of the chosen item.
Given back: A

a. Cc1cc(COc2cc3[nH]c(CNC(=O)C4(C)CC4)cc3cc2Cl)no1 [Compound 45]
b. O=C(NCc1cc2cc(Cl)c(OCc3cscn3)cc2[nH]1)C1CC(F)(F)C1 [Compound 495]
Asked: Determine, for a and b , which has the greater value of IC50. Answer by stating the label of the chosen item.
Given back: b
